- system_under_test: Sodium-dependent noradrenaline transporter (Homo sapiens, UniProt P23975)
- Sequence (P23975 whole entry): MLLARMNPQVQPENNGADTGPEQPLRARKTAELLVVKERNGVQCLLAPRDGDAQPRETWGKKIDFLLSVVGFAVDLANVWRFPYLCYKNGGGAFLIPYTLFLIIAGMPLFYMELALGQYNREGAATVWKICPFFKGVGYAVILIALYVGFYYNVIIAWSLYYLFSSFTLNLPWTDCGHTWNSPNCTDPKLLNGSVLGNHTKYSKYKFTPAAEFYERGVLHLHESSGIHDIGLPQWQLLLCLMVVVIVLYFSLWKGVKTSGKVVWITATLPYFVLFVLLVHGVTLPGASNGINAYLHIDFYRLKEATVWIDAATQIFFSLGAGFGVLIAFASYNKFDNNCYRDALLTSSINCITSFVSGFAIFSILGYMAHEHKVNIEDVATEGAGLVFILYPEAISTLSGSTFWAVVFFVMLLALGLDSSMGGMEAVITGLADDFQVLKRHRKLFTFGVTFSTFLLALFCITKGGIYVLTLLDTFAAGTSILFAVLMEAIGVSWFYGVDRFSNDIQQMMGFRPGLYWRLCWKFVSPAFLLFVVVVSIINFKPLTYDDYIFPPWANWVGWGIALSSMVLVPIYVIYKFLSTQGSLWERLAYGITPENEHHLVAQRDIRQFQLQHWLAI
- measurement_protocol: Displacement of [3H]nisoxetine from NET
// assign T if Ki falls strictly below 500 nM, else F (ties count as F)

# smi, system_under_test, class_assignment
measured = [
    ("O[C@H](CCN1CCC(CCOC(c2ccc(F)cc2)c2ccc(F)cc2)CC1)c1ccccc1", "Sodium-dependent noradrenaline transporter (Homo sapiens, UniProt P23975)", "T"),
    ("O[C@H](CCc1ccccc1)CN1CCC(CCOC(c2ccc(F)cc2)c2ccc(F)cc2)CC1", "Sodium-dependent noradrenaline transporter (Homo sapiens, UniProt P23975)", "T"),
    ("Fc1ccc(C(OCCC2CCN(C[C@H]3C[C@@H]3c3ccccc3)CC2)c2ccc(F)cc2)cc1", "Sodium-dependent noradrenaline transporter (Homo sapiens, UniProt P23975)", "T"),
    ("C[C@H](Cc1ccccc1)CN1CCC(CCOC(c2ccc(F)cc2)c2ccc(F)cc2)CC1", "Sodium-dependent noradrenaline transporter (Homo sapiens, UniProt P23975)", "T"),
    ("O[C@H](Cc1ccccc1)CN1CCC(CCOC(c2ccc(F)cc2)c2ccc(F)cc2)CC1", "Sodium-dependent noradrenaline transporter (Homo sapiens, UniProt P23975)", "F"),
    ("N[C@@H](Cc1ccccc1)CN1CCC(CCOC(c2ccc(F)cc2)c2ccc(F)cc2)CC1", "Sodium-dependent noradrenaline transporter (Homo sapiens, UniProt P23975)", "F"),
    ("O[C@@H](CCc1ccccc1)CN1CCC(CCOC(c2ccc(F)cc2)c2ccc(F)cc2)CC1", "Sodium-dependent noradrenaline transporter (Homo sapiens, UniProt P23975)", "F"),
    ("O[C@@H](Cc1ccccc1)CN1CCC(CCOC(c2ccc(F)cc2)c2ccc(F)cc2)CC1", "Sodium-dependent noradrenaline transporter (Homo sapiens, UniProt P23975)", "T"),
    ("N[C@H](Cc1ccccc1)CN1CCC(CCOC(c2ccc(F)cc2)c2ccc(F)cc2)CC1", "Sodium-dependent noradrenaline transporter (Homo sapiens, UniProt P23975)", "F"),
]
